Source listed as patent US20240383954A1.

Target Desc: IL-23R (Homo sapiens, UniProt Q5VWK5);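 further: cryopreserved PBMCs stimulated at 37 °C in 5% CO2, then lysed, with phosphorylated STAT3 quantified in lysates using a phospho-STAT panel kit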
Sequence (Q5VWK5 24-629): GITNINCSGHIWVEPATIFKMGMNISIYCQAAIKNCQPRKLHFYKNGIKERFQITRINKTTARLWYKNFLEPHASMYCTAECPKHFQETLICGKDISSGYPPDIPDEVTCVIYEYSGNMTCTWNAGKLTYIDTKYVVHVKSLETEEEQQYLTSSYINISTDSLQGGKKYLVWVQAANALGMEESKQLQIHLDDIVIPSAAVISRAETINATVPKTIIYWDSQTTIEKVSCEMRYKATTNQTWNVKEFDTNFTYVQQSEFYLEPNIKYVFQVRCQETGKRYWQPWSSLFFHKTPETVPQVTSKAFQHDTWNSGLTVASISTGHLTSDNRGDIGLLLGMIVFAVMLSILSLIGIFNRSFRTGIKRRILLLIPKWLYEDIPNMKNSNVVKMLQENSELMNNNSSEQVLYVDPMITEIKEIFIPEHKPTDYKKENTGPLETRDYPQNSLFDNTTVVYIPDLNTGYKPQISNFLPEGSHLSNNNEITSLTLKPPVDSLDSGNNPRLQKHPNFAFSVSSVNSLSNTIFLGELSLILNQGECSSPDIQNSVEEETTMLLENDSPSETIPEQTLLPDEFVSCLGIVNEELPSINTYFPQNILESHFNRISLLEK
Protocol Text: cell-based
Test Context: PBMC pSTAT3 IC50 (nM), PBMCs from healthy donors, IL-23 5 ng/mL, 30 minutes, phosphorylated STAT3
Positions of bridges follow the written chain, without caps; N, C: chain ends. Non-standard residues stand in square brackets, D forms with d. Residues, ends and D or L forms follow the SMILES beside them. *: point of attachment. Trp(7-Me) = Cc1cccc2c(C[C@H](N)C(=O)O)c[nH]c12; 2Nal = N[C@@H](Cc1ccc2ccccc2c1)C(=O)O; AEF = NCCOc1ccc(C[C@H](N)C(=O)O)cc1; Cit = NC(=O)NCCC[C@H](N)C(=O)O; Pen = CC(C)(S)[C@H](N)C(=O)O; αMeK = C[C@](N)(CCCCN)C(=O)O; Thp = NC1(C(=O)O)CCOCC1; Pentanoyl = CCCCC(=O)*; Aib = CC(C)(N)C(=O)O; Propionyl = CCC(=O)*
Reported Endpoint: IC50 (nM)
Answer in nM, number only, no unit symbol.

Req: Dear colleague, I am looking for the recorded IC50 of the following molecule: CC(=O)NCCCC[C@@H]1NC(=O)[C@H](Cc2c[nH]c3c(C)cccc23)NC(=O)[C@H]([C@@H](C)O)NC(=O)[C@H](CC(N)=O)NC(=O)[C@@H](NC(C)=O)C(C)(C)SSC(C)(C)[C@@H](C(=O)N[C@@H](Cc2ccc(OCCN)cc2)C(=O)N[C@@H](Cc2ccc3ccccc3c2)C(=O)N[C@@](C)(CCCCN)C(=O)N[C@@H](CCCCNC(C)=O)C(=O)N[C@@H](CC(N)=O)C(=O)NC2(C(N)=O)CCOCC2)NC1=O [Compound 75]
Resp: 8.9

Req: Dear colleague, I am looking for the recorded IC50 of the following molecule: CC(=O)NCCCC[C@@H]1NC(=O)[C@H](Cc2c[nH]c3c(C)cccc23)NC(=O)[C@H]([C@@H](C)O)NC(=O)[C@H](CC(N)=O)NC(=O)[C@@H](NC(C)=O)C(C)(C)SSC(C)(C)[C@@H](C(=O)N[C@@H](Cc2ccc(OCCN)cc2)C(=O)N[C@@H](Cc2ccc3ccccc3c2)C(=O)N[C@@](C)(CCCCN)C(=O)N[C@@H](CCCCNC(C)=O)C(=O)N[C@@H](CC(N)=O)C(=O)NC2(C(=O)N[C@H](Cc3ccc(O)cc3)C(N)=O)CCOCC2)NC1=O [Compound 107]
Resp: 11

Req: Dear colleague, I am looking for the recorded IC50 of the following molecule: CCCCC(=O)N[C@H](CCCNC(=N)N)C(=O)N[C@@H]1C(=O)N[C@@H](CCC(N)=O)C(=O)N[C@@H]([C@@H](C)O)C(=O)N[C@@H](Cc2c[nH]c3ccccc23)C(=O)N[C@@H](CCC(N)=O)C(=O)N[C@H](C(=O)N[C@@H](Cc2ccc(OCCN)cc2)C(=O)N[C@@H](Cc2ccc3ccccc3c2)C(=O)NC2(C(=O)N[C@@H](CCC(=O)O)C(=O)N[C@@H](CC(N)=O)C(=O)NC3(C(N)=O)CCOCC3)CCOCC2)C(C)(C)SSC1(C)C [Compound 9] (Pentanoyl-[dR][Pen]QTWQ[Pen][AEF][2Nal][Thp]EN[Thp]-NH2; disulfide 2-7)
Resp: 29

Req: Dear colleague, I am looking for the recorded IC50 of the following molecule: CCC(=O)N[C@H](CCCNC(=N)N)C(=O)N[C@@H]1C(=O)N[C@@H](CCC(N)=O)C(=O)N[C@@H]([C@@H](C)O)C(=O)N[C@@H](Cc2c[nH]c3ccccc23)C(=O)N[C@@H](CCC(N)=O)C(=O)N[C@H](C(=O)N[C@@H](Cc2ccc(OCCN)cc2)C(=O)N[C@@H](Cc2ccc3ccccc3c2)C(=O)NC2(C(=O)N[C@@H](CCCCNC(=O)C(F)(F)F)C(=O)N[C@@H](CC(N)=O)C(=O)NC3(C(N)=O)CCOCC3)CCOCC2)C(C)(C)SSC1(C)C [Compound 6]
Resp: 8.6

Req: Dear colleague, I am looking for the recorded IC50 of the following molecule: CCC(=O)N[C@H](CCCNC(=N)N)C(=O)N[C@@H]1C(=O)N[C@@H](CCC(N)=O)C(=O)N[C@@H]([C@@H](C)O)C(=O)N[C@@H](Cc2c[nH]c3ccccc23)C(=O)N[C@@H](CCC(N)=O)C(=O)N[C@H](C(=O)N[C@@H](Cc2ccc(OCCN)cc2)C(=O)N[C@@H](Cc2ccc3ccccc3c2)C(=O)NC2(C(=O)N[C@@H](CCC(=O)O)C(=O)N[C@@H](CC(N)=O)C(=O)NC3(C(N)=O)CCOCC3)CCOCC2)C(C)(C)SSC1(C)C [Compound 10] (Propionyl-[dR][Pen]QTWQ[Pen][AEF][2Nal][Thp]EN[Thp]-NH2; disulfide 2-7)
Resp: 4.6

Req: Dear colleague, I am looking for the recorded IC50 of the following molecule: CC(=O)NCCCC[C@@H]1NC(=O)[C@H](Cc2c[nH]c3ccccc23)NC(=O)[C@H]([C@@H](C)O)NC(=O)[C@H](CC(N)=O)NC(=O)[C@@H](NC(C)=O)C(C)(C)SSC(C)(C)[C@@H](C(=O)N[C@@H](Cc2ccc(OCCN)cc2)C(=O)N[C@@H](Cc2ccc3ccccc3c2)C(=O)N[C@@](C)(CCCCN)C(=O)N[C@@H](CCCCNC(C)=O)C(=O)N[C@@H](CC(N)=O)C(=O)N[C@@](C)(Cc2ccccc2)C(N)=O)NC1=O [Compound 98]
Resp: 15

Req: Dear colleague, I am looking for the recorded IC50 of the following molecule: CC(=O)NCCCC[C@H](NC(=O)[C@](C)(CCCCN)NC(=O)[C@H](Cc1ccc2ccccc2c1)NC(=O)[C@H](Cc1ccc(OCCN)cc1)NC(=O)[C@H]1NC(=O)[C@H](CCC(N)=O)NC(=O)[C@H](Cc2c[nH]c3c(C)cccc23)NC(=O)[C@H]([C@@H](C)O)NC(=O)[C@H](CC(N)=O)NC(=O)[C@@H](NC(C)=O)C(C)(C)SSC1(C)C)C(=O)N[C@@H](CC(N)=O)C(=O)NC1(C(N)=O)CCOCC1 [Compound 87]
Resp: 3.6

Req: Dear colleague, I am looking for the recorded IC50 of the following molecule: CC(=O)NCCCC[C@H](NC(=O)[C@](C)(CCCCN)NC(=O)[C@H](Cc1ccc2ccccc2c1)NC(=O)[C@H](Cc1ccc(OCCN)cc1)NC(=O)[C@H]1NC(=O)[C@H](CCCNC(N)=O)NC(=O)[C@H](Cc2c[nH]c3c(C)cccc23)NC(=O)[C@H]([C@@H](C)O)NC(=O)[C@H](CC(N)=O)NC(=O)[C@@H](NC(C)=O)C(C)(C)SSC1(C)C)C(=O)N[C@@H](CC(N)=O)C(=O)NC(C)(C)C(N)=O [Compound 302] (Ac-[Pen]NT[Trp(7-Me)][Cit][Pen][AEF][2Nal][αMeK]K(Ac)N[Aib]-NH2; disulfide 1-6)
Resp: 7

Req: Dear colleague, I am looking for the recorded IC50 of the following molecule: COc1ccc(C[C@H](NC(=O)[C@H](CC(N)=O)NC(=O)[C@](C)(CCC(=O)O)NC(=O)C2(NC(=O)[C@H](Cc3ccc4ccccc4c3)NC(=O)[C@H](Cc3ccc(OCCN)cc3)NC(=O)[C@@H]3CSCC[C@H](NC(=O)[C@@H](CCCNC(=N)N)NC(C)=O)C(=O)N[C@@H](CCC(N)=O)C(=O)N[C@@H]([C@@H](C)O)C(=O)N[C@@H](Cc4c[nH]c5ccccc45)C(=O)N[C@@H](CCC(N)=O)C(=O)N3)CCOCC2)C(N)=O)cc1OC [Compound 78]
Resp: 31
